# Test system: HL-60
# PROCEDURE DETAILS: NCI tumour cell line growth inhibition, 48 h
Active and inactive are the calls of the source. Cut-off read from the data, not from the text of the source: active = GI50 up to about 1.1 µM and inactive = higher. Residues, ends and D or L forms follow the SMILES beside them. *: point of attachment. Bn = c1ccc(C*)cc1
Can you answer with just one of these options? active, inactive

NC(=O)Oc1ccccc1 [CARBAMIC ACID PHENYL ESTER]    inactive
CN1C(=O)C(CC=O)(C(C)(C)C)c2ccccc21 (stereo not given)    inactive
CC(=O)ON1C(=O)c2cccc3cccc(c23)C1=O    inactive
CSc1nc2nccnc2c(=O)[nH]1    inactive
CC(=O)c1ccc(N2CCN(C3=CC(=O)c4c(O)ccc(O)c4C3=O)CC2)cc1    inactive
Cc1cc(O)nc(NN2C(Cl)C(=O)C2c2ccc(O)cc2)n1 (stereo not given)    inactive

Exam item: # lookup: test call for CCCCCCCCCC(=O)N[C@H]1CCc2cc(OC)c(OC)c(OC)c2-c2ccc(SC)c(=O)cc21
Marked response: active

Exam item: Dear colleague, could you share the recorded outcome for O=C1c2ccccc2N1C(=O)c1ccccc1[N+](=O)[O-] when you have a moment?
Marked response: inactive

Exam item: Hi, do you know how COC(=O)C(CC(C)C)NC(=O)C(N)Cc1ccc(OCc2ccccc2)cc1 (stereo not given) (H-Tyr(Bn)-Leu-OMe; configuration not given here) came out in this test?
Marked response: inactive

Exam item: Status in this test for CC(=O)n1c(=O)c2cc3c(=O)n(-c4cccc(C#N)c4)c(=O)c3cc2c1=O ?
Marked response: inactive
